Reference for the values: PubChem BioAssay (NCI)

Experiment: NCI Yeast Anticancer Drug Screen. Data for the rad50 strain (AID 155);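 further: 0% = growth of vehicle-only cultures of the same strain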
Conditions: S. cerevisiae rad50 strain growth inhibition; at 50.0 µM (retest, dose inferred, filed as 5.0)
Procedure: Growth inhibition of yeast strains with defined genetic alterations is measured as a screen for potential anti-cancer activity. Selected strains with alterations in DNA damage repair or cell cycle control were exposed to compounds and growth inhibition was measured relative to vehicle treated controls. The strain used in this assay is rad50
The panel holds about 79,000 compounds, 15% with a hit somewhere; the sample as a whole holds those more often. Activity calls are given as the source filed them. No stated cut-off is given here; in the data, active means growth inhibition above about 70%; inactive means the rest.
Tick one outcome: 1 (yes) for active, 0 (no) for inactive

Below, 4 molecules whose answers are already recorded.
[
  {
    "Smiles str": "CCCCCCc1cc(C(=O)OC/C(C)=N/NC(N)=O)c2ccccc2n1",
    "Class assignment": "0 (no)"
  },
  {
    "Smiles str": "N#C/C(=C\\c1cccc(OCc2ccccc2)c1)c1ccc([N+](=O)[O-])cc1",
    "Class assignment": "1 (yes)"
  },
  {
    "Smiles str": "CCC/C(Cl)=N\\OC(=O)Nc1cccc(C(F)(F)F)c1",
    "Class assignment": "1 (yes)"
  },
  {
    "Smiles str": "S=C(N/N=C(/c1ccccc1)c1ccccn1)N1CCCCCC1",
    "Class assignment": "1 (yes)"
  }
]

Hi, sorry to bother you, what did the test record for O=C(O)c1ccccc1NC(=S)c1ccccc1 ?
1 (yes)

One more molecule: CCN(CC)CC[n+]1ccc2c(C)c3[nH]c4ccc(O)cc4c3c(C)c2c1
1 (yes)

---

Assay: NCI Yeast Anticancer Drug Screen. Data for the wt2 strain (AID 169);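 further: 0% = growth of vehicle-treated yeast cultures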
Conditions: S. cerevisiae wt2 strain growth inhibition; at 1.2 µM; stronger effect = higher value
The panel holds about 79,000 compounds, 15% with a hit somewhere; the sample as a whole holds those more often.
Catalogue of molecules with associated growth inhibition
Kindly provide the numeric value in % only, without the unit symbol.

Record excerpt, results attached:
[
  {
    "Molecule": "c1ccc2c(c1)sc1cc3ccncc3cc12",
    "Value observed": -4
  },
  {
    "Molecule": "COc1cc2c(c(OC)c1OC)-c1c(cc3c(c1OC)OCO3)CC(C)C(C)(O)C2OC(=O)c1ccccc1 (stereo unspecified)",
    "Value observed": -26
  },
  {
    "Molecule": "CC(C)c1ccccc1NC(=O)/C(Cl)=C(\\Cl)C(=O)O",
    "Value observed": 1
  },
  {
    "Molecule": "C=C(CN(C)C)C(=O)c1cc(C)ccc1C",
    "Value observed": 3
  },
  {
    "Molecule": "Brc1ccc(-c2cc3c(cc2C2SCCS2)OCO3)cc1",
    "Value observed": -1
  }
]

Below: the item to evaluate.
If you can, please state the reported growth inhibition value of NC(=S)N/N=C\c1nccc2ccccc12 .
-5

---

Experiment: NCI Yeast Anticancer Drug Screen. Data for the rad14 strain (AID 159);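 further: 0% = growth of vehicle-treated control cultures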
Conditions: S. cerevisiae rad14 strain growth inhibition; at 33.0 µM; stronger effect = higher value
About 79,000 compounds went through this panel and 15% of them were active in at least one assay; those are over-represented in the sample as a whole.
Property label: growth inhibition (%)
Kindly provide the numeric value in % only, without the unit symbol.

Record excerpt, results attached:
[
  {
    "Compound": "CCN(CC)CCNc1ccc([N+](=O)[O-])c2nc3ccc(OC)cc3c(N)c12",
    "growth inhibition (%)": 28
  },
  {
    "Compound": "COc1cc2c(c(OC)c1OC)-c1c(cc3c(c1OC)OCO3)CC(C)C(C)(O)C2OC(=O)c1ccccc1 (stereo unspecified)",
    "growth inhibition (%)": -4
  },
  {
    "Compound": "CN1CCc2ccccc2C1Cc1ccccc1NC(=O)c1sc2ccccc2c1Cl (stereo unspecified)",
    "growth inhibition (%)": 89
  },
  {
    "Compound": "CCCCOC(=O)N[C@H]1CCc2cc(OC)c(OC)c(OC)c2-c2ccc(SC)c(=O)cc21",
    "growth inhibition (%)": 49
  },
  {
    "Compound": "COc1ccc(C2c3cc4c(cc3OC(C)(O)C2C)OCO4)c(OC)c1 (stereo unspecified)",
    "growth inhibition (%)": 1
  }
]

If you can, please state the reported growth inhibition value of N#Cc1c(N)[nH]c2ccc(Sc3ccccc3)cc12 .
95

One more compound: O=Nc1cccnc1N=O
99

One more compound: Cc1c(C2=C(Br)C(=O)N(C)C2=O)c(=O)n(C)c(=O)n1C
47

One more compound: CC(=O)SCCC[Si](C)(C)CCCSC(C)=O
14

One more compound: Oc1ccc(NCn2c(=S)sc3ccccc32)cc1
62

One more compound: O=C(OCCN1CCCCCC1)C(c1ccsc1)C1CCCCC1 (stereo unspecified)
43

---

Experiment: NCI Yeast Anticancer Drug Screen. Data for the mgt1 strain (AID 153)
Settings: S. cerevisiae mgt1 mutant growth inhibition; at 33.0 µM
Compounds without any hit were thinned out: in the full panel of roughly 79,000, 15% have a hit. The source made the active and inactive calls. Cut-off read from the data, not from the text of the source: active = growth inhibition above about 70%; inactive = the rest.
Tick one outcome: active, inactive

[
  {
    "Compound": "O=c1c2ccccc2ncn1COCc1ccccc1",
    "Class assignment": "inactive"
  },
  {
    "Compound": "O=C1c2ccccc2-c2n[nH]c3cccc1c23",
    "Class assignment": "inactive"
  },
  {
    "Compound": "Cc1c(C(=O)C(=O)c2ccccc2)c(C)c(C(=O)C(=O)c2ccccc2)c(C)c1C(=O)C(=O)c1ccccc1",
    "Class assignment": "inactive"
  }
]

Hi, sorry to bother you, what did the test record for CN(C)Cc1cc(N=Nc2ccc(Cl)cc2)cc(CN(C)C)c1O ?
inactive

One more compound: O=C(O)c1ccccc1NC(=S)c1ccccc1
inactive

One more compound: O=C(COC(=O)c1cc(O)c(O)c(O)c1)c1ccc(-c2ccccc2)cc1
inactive

One more compound: COc1cccc2nc3ccccc3nc12
active

One more compound: BrCC[P+](c1ccccc1)(c1ccccc1)c1ccccc1
active

One more compound: c1ccc2c(c1)-c1nc3ccccc3cc1C2N1CCOCC1 (centres undefined)
inactive

One more compound: O=[N+]([O-])c1cc(CCl)ccc1CCl
active

One more compound: CC1CCN(CCC(=O)c2ccc(Cl)cc2)CC1
inactive

One more compound: COc1cc2c(c(OC)c1OC)-c1c(cc3c(c1OC)OCO3)CC(C)C(C)(O)C2OC(=O)c1ccccc1 (centres undefined)
inactive

One more compound: NCCNc1ccc(NCCN)c2c1C(=O)c1c(O)ccc(O)c1C2=O
active

One more compound: C/C(=N\O)C1CC2C=C(C#N)C1N(Cc1ccccc1)C2 (centres undefined)
inactive

One more compound: O=C1c2ccccc2-c2nc3ccccc3nc21
inactive

One more compound: COC(=O)C1=C(C)NC(C)=C(C(=O)OC)C1c1cccc(/[N+]([O-])=C/c2ccccc2)c1
inactive

One more compound: O=C1C=CC(=Nc2ccc3c(c2)Cc2cc(NC(=O)C(F)(F)F)ccc2-3)O1
inactive

One more compound: O=[N+]([O-])c1cccc2nccc(NCCCO)c12
inactive

One more compound: O=[N+]([O-])C(=C(Sc1ccccc1)Sc1ccccc1)C(Cl)=C(Cl)Cl
inactive

One more compound: Cc1cc(S(=O)(=O)/N=C(/NN)NNc2cccc(C(F)(F)F)n2)c(S)cc1Cl
inactive

One more compound: COCCOC(=O)CCn1cc(F)c(=O)[nH]c1=O
inactive

One more compound: CCN(CC)C(C)(C)C(=O)/C=C/c1ccccc1
inactive

One more compound: CCCCc1cc(O)ccc1O
inactive

One more compound: COc1ccc(-c2cn(-c3ccc(I)cc3)c3ncnc(N)c23)cc1
inactive

---

Test: NCI Yeast Anticancer Drug Screen. Data for the rad50 strain (AID 155);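 further: 0% = growth of vehicle-only cultures of the same strain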
Details: S. cerevisiae rad50 strain growth inhibition; at 5.0 µM (retest, dose inferred, filed as 0.5)
The panel holds about 79,000 compounds, 15% with a hit somewhere; the sample as a whole holds those more often. Calls of active or inactive are those of the source. Cut-off read from the data, not from the text of the source: active = growth inhibition above about 70%; inactive = the rest.
Tick one outcome: y = active, n = inactive

[
  {
    "Compound": "O=C(c1ccc(Cl)cc1Cl)C(Cl)Cl",
    "Class assignment": "n"
  }
]

Hi, sorry to bother you, what did the test record for O=C(O)c1cccc(-c2c3ccc(=O)cc-3oc3cc(O)ccc23)c1 ?
y

One more compound: CC[C@@]1(O)C(=O)OCc2c1cc1n(c2=O)Cc2cc3c(N)cccc3nc2-1
y

---

Assay: NCI Yeast Anticancer Drug Screen. Data for the rad18 strain (AID 177)
Conditions: S. cerevisiae rad18 mutant growth inhibition; at 100.0 µM
About 79,000 compounds went through this panel and 15% of them were active in at least one assay; those are over-represented in the sample as a whole. Activity calls are given as the source filed them. Cut-off read from the data, not from the text of the source: active = growth inhibition above about 70%; inactive = the rest.
Tick one outcome: Y for active, N for inactive

Below, 3 molecules whose answers are already recorded.
[
  {
    "Molecule": "CN(CCc1ccccn1)c1ccc2c(c1)Cc1ccccc1-2",
    "Class assignment": "Y"
  },
  {
    "Molecule": "[O-][n+]1c2ccc(O)cc2nc2ccc(Cl)cc21",
    "Class assignment": "Y"
  },
  {
    "Molecule": "Cn1c(N)nc(-c2ccc(Cl)cc2)c1SSc1c(-c2ccc(Cl)cc2)nc(N)n1C",
    "Class assignment": "Y"
  }
]

Hi, sorry to bother you, what did the test record for CC/C(=C(\c1ccccc1)c1ccc(OCCN(C)C)cc1)c1ccccc1 ?
Y

One more molecule: O=C(CCCN1CCC(O)(c2ccc(Cl)cc2)CC1)c1ccc(F)cc1
N

One more molecule: O=C(c1cc(Br)ccc1O)c1cc(Br)ccc1O
Y

One more molecule: CNC1C(OC2C(OC3C(O)C(O)C(N=C(N)N)C(O)C3N=C(N)N)OC(C)C2(O)CO)OC(CO)C(O)C1O (stereo unspecified)
N
